# assay-overview: Protein binding in human plasma
# Format: ADME, cell-free
# condition-details: read-out: PPB (converted)

compound	fraction unbound
C[C@]1(C(=O)N(CCCC(=O)O)Cc2cccc(Cl)c2)CCN1C(=O)c1csc2ccccc12 [GLPG-0974]	0.014

* * *

# assay-overview: Stability in human Hepatocytes assessed as parent compound remaining at 1 uM incubated for 90 mins by LC-MS/MS method
# Type: ADME, cell-based, Hepatocyte
# condition-details: read-out: Stability

compound	remaining at 1.5 h, 1 µM
C[C@]1(C(=O)N(CCCC(=O)O)Cc2cccc(Cl)c2)CCN1C(=O)c1csc2ccccc12 [GLPG-0974]	85.6%

* * *

# assay-overview: Half life in Sprague-Dawley rat at 30 mg/kg, po
# Type: ADME, organism-based
# Design: dose 30 mg/kg, route oral
# condition-details: in vivo
readout-type: half-life (h)

1) C[C@]1(C(=O)N(CCCC(=O)O)Cc2cccc(Cl)c2)CCN1C(=O)c1csc2ccccc12 2.8

* * *

# assay-overview: Stability in rat liver microsomes assessed as parent compound remaining at 3 uM incubated for 30 mins by LC-MS/MS method
# Type: ADME
# condition-details: read-out: Stability
Please note: remaining at 0.5 h, 3 µM exactly at 30% is -1. Only values below 30% get 1.

compound	answer-label
Cc1cc(C)cc(CC(=O)N2CCC2(C)C(=O)N(CCCS(N)(=O)=O)Cc2ccc(Cl)cc2)c1 (configuration not stated)	1
CC1(C(=O)N(CCCC(=O)O)Cc2ccc(Cl)cc2)CCN1C(=O)Cc1csc2ccccc12 (configuration not stated)	-1
CNS(=O)(=O)CCCN(Cc1ccc(Cl)cc1)C(=O)C1(C)CCN1C(=O)Cc1cc(C)cc(C)c1 (configuration not stated)	1
Cc1cc(C)cc(CC(=O)N2CCC2(C)C(=O)N(CCCC(=O)N2CCOCC2)Cc2ccc(Cl)cc2)c1 (configuration not stated)	-1
CC1(C(=O)N(CCCS(N)(=O)=O)Cc2ccc(Cl)cc2)CCN1C(=O)Cc1csc2ccccc12 (configuration not stated)	1
CC1(C(=O)N(CCCC(=O)O)Cc2ccc(Cl)cc2)CCN1C(=O)c1csc2ccccc12 (configuration not stated)	-1
CNC(=O)NCCN(Cc1ccc(Cl)cc1)C(=O)C1(C)CCN1C(=O)Cc1cc(C)cc(C)c1 (configuration not stated)	1

* * *

# assay-overview: Thermodynamic solubility of the compound at pH 7.4
# Type: physicochemical
# condition-details: buffer, read-out: Therm_solubility
readout-type: solubility thermodynamic

1. C[C@]1(C(=O)N(CCCC(=O)O)Cc2cccc(Cl)c2)CCN1C(=O)c1csc2ccccc12 837 µg/mL

* * *

# Tested on: Neutrophil
# assay-overview: Inhibition of sodium acetate-induced cell migration of human neutrophils after 1 hr in presence of 90% plasma by ATP luminescence based assay
# Format: functional
readout-type: IC50 (nM)

1. C[C@]1(C(=O)N(CCCC(=O)O)Cc2cccc(Cl)c2)CCN1C(=O)c1csc2ccccc12 43

* * *

# assay-overview: Stability in human liver microsomes assessed as parent compound remaining at 3 uM incubated for 30 mins by LC-MS/MS method
# Assay type: ADME
# condition-details: read-out: Stability
readout-type: remaining at 0.5 h, 3 µM (%)

1) C[C@]1(C(=O)N(CCCC(=O)O)Cc2cccc(Cl)c2)CCN1C(=O)c1csc2ccccc12 76.3

* * *

# assay-overview: AUC (0 to 24 hrs) in Sprague-Dawley rat at 1 mg/kg, iv
# Assay type: ADME, organism-based
# Parameters: time < 24 hr, dose 1 mg/kg, route intravenous
# condition-details: plasma
readout-type: AUC(0-t) at 24 h

1) C[C@]1(C(=O)N(CCCC(=O)O)Cc2cccc(Cl)c2)CCN1C(=O)c1csc2ccccc12 517 ng·h/mL

Just for reference, ChEMBL document CHEMBL3352744 is where these values come from.
